test system: HEK293; assay: Selectivity index, ratio of IC50 for HEK cells to IC50 for human K562 cells; assay type: functional
assay.readout: Ratio IC50
When you answer, write just the number.

Any idea what its Ratio IC50 is? The compound is `COc1ccc2cc(-c3cn(Cc4ccccc4-n4c(C)nc5ccccc5c4=O)nn3)ccc2c1`
9.11

Given `COc1cccc(-c2cn(Cc3ccccc3-n3c(C)nc4cc(OC)c(OC)cc4c3=O)nn2)c1` , state its recorded Ratio IC50.
2.27

What value of measured Ratio IC50 is listed for `CCCCCCc1cn(Cc2ccccc2-n2c(C)nc3cc(OC)c(OC)cc3c2=O)nn1` ?
2.2

What measured Ratio IC50 goes with `COc1ccc2cc(-c3cn(Cc4ccccc4-n4c(C)nc5cc(OC)c(OC)cc5c4=O)nn3)ccc2c1` ?
2.42

Need Ratio IC50 of `Cc1nc2ccccc2c(=O)n1-c1ccccc1Cn1cc(-c2ccccc2)nn1` , thanks.
12.69

Quick one: Ratio IC50 for `COc1cc2nc(C)n(-c3ccccc3Cn3cc(-c4ccccn4)nn3)c(=O)c2cc1OC` ?
12.11

Which Ratio IC50 reading was recorded for the compound `COc1cc2nc(C)n(-c3ccccc3Cn3cc(-c4cccnc4)nn3)c(=O)c2cc1OC` ?
2.7

# input compound: CCCCCC(O)c1cn(Cc2ccccc2-n2c(C)nc3cc(OC)c(OC)cc3c2=O)nn1 (centres undefined) ; wanted: its Ratio IC50
2.09

Next:
Requested field: Ratio IC50. Item: `COc1cc2nc(C)n(-c3ccccc3Cn3cc(-c4ccccc4)nn3)c(=O)c2cc1OC`
2.5

Reported Ratio IC50 for `COc1cc2nc(C)n(-c3ccccc3Cn3ccnn3)c(=O)c2cc1OC` : what is it?
3.4

# lookup: Ratio IC50 of `COc1cc2nc(C)n(-c3ccccc3Cn3cc(-c4cc5ccccc5c5ccccc45)nn3)c(=O)c2cc1OC`
3.47

Recorded Ratio IC50 of `COc1cc2nc(C)n(-c3ccccc3Cn3cc(CO)nn3)c(=O)c2cc1OC` , please.
3.92

State the recorded Ratio IC50 for this entry: `COc1cc2nc(C)n(-c3ccccc3Cn3cc(-c4cccc(C)c4)nn3)c(=O)c2cc1OC`
1.77

Please give the measured Ratio IC50 for this compound: `COc1cc2nc(C)n(-c3ccccc3Cn3nnc4ncccc43)c(=O)c2cc1OC`
4.01
